Each recorded value in this set is attributed to patent US6432655B1.

biological target: human 5-HT4B receptor (Homo sapiens); construct: The entire coding region of the human 5-HT4B receptor (1338 bp); expressed in transfected cells; experiment: cell-based; assay type: cell-based
Sequence (P34969 1-445 isoform P34969-2): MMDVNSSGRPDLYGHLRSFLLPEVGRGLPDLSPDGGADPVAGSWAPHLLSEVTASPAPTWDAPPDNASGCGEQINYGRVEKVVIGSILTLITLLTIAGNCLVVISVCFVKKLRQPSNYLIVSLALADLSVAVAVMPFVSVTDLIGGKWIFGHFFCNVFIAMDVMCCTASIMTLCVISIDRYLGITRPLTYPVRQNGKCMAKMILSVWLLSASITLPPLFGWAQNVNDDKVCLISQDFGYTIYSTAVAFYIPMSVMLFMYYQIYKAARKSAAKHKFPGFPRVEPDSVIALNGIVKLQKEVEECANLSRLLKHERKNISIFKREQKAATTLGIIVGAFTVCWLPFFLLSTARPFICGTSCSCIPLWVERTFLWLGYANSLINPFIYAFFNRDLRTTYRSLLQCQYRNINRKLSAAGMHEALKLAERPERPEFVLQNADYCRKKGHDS
readout_type: INTRINSIC ACTIVITY

CCN(CC)C(=O)[C@@H]1C=C2c3cccc4[nH]cc(c34)C[C@H]2N(C)C1 = ANTAGONIST
CN1C[C@H](C(=O)N[C@]2(C)O[C@@]3(O)[C@@H]4CCCN4C(=O)[C@H](Cc4ccccc4)N3C2=O)C[C@@H]2c3cccc4[nH]cc(c34)C[C@H]21 [Dihydroergotamine] = ANTAGONIST
CCN(CC)C(=O)[C@@H]1C=C2c3cccc4[nH]c(Br)c(c34)C[C@H]2N(C)C1 = ANTAGONIST

----------
pKi values by entry
target: human 5-HT4B receptor (clone hp78a) (Homo sapiens); construct: The entire coding region of the human 5-HT4B receptor (1338 bp); expressed in transfected cells; host or cells: Cos-7 (monkey kidney), transient, plasmid hp78a/EXJ (pcEXV-5HT4B); test: [3H]5-HT radioligand binding to membranes of Cos-7 cells transiently expressing clone hp78a; conditions: Ki (apparent dissociation constants for clone hp78a)
Lab note: report pKi as minus log10 of the concentration in molar units, number only.

Example cases with answers are listed next.
CN(C)CCc1c[nH]c2ccc(O)cc12 = 7.59
CN1C[C@H](C(=O)N[C@]2(C)O[C@@]3(O)[C@@H]4CCCN4C(=O)[C@H](Cc4ccccc4)N3C2=O)C[C@@H]2c3cccc4[nH]cc(c34)C[C@H]21 [Dihydroergotamine] = 8.16
NCCc1c[nH]c2ccc(OCc3ccccc3)cc12 = 6.14

Exercise: What pKi appears in the records for this compound with human 5-HT4B receptor (clone hp78a) (Homo sapiens)? CC(N)Cc1c[nH]c2ccc(O)cc12 (racemic) [α-Methyl-5-hydroxy-tryptamine]
Key: 6.29

Exercise: What pKi appears in the records for this compound with human 5-HT4B receptor (clone hp78a) (Homo sapiens)? CN1C[C@H](C(=O)N[C@]2(C)O[C@@]3(O)[C@@H]4CCCN4C(=O)[C@H](Cc4ccccc4)N3C2=O)C=C2c3cccc4[nH]cc(c34)C[C@H]21
Key: 7.82

----------
pKi values by entry
molecular target: human 5-HT4B receptor (clone hp78a) (Homo sapiens); construct: The entire coding region of the human 5-HT4B receptor (1338 bp); expressed in transfected cells; host or cells: Cos-7 (monkey kidney), transient, plasmid hp78a/EXJ (pcEXV-5HT4B); experiment: [3H]5-HT radioligand binding to membranes of Cos-7 cells transiently expressing clone hp78a; details: read-out: Ki (apparent dissociation constants for clone hp78a)
Lab note: report pKi as minus log10 of the concentration in molar units, number only.

Example cases with answers are listed next.
CCN(CC)C(=O)[C@@H]1C=C2c3cccc4[nH]c(Br)c(c34)C[C@H]2N(C)C1 = 7.52
CNS(=O)(=O)Cc1ccc2[nH]cc(CCN(C)C)c2c1 = 6.02

Please examine the following record next.
Exercise: # input molecule: c1ccc2c(N3CCNCC3)cccc2c1 ; wanted: its pKi
Key: 7.08

----------
target: human 5-HT4B receptor (clone hp78a) (Homo sapiens, UniProt P34969); construct: The entire coding region of the human 5-HT4B receptor (1338 bp); expressed in transfected cells; host or cells: Cos-7 (monkey kidney), transient, plasmid hp78a/EXJ (pcEXV-5HT4B); assay: [3H]5-HT radioligand binding to membranes of Cos-7 cells transiently expressing clone hp78a; details: 5 nM [3H]5-HT, seven concentrations of competitor, 30 min at 37° C.; mean ± S.E.M., 2-5 determinations; read-out: Ki (apparent dissociation constants for clone hp78a)
Sequence (P34969 1-445 isoform P34969-2): as above
readout_type: Ki (nM)
Report as a plain number; the unit nM is understood.

Cc1nc2sccn2c(=O)c1CCN1CCC(=C(c2ccc(F)cc2)c2ccc(F)cc2)CC1 = 45
CN1C[C@H](CNC(=O)OCc2ccccc2)C[C@@H]2c3cccc4c3c(cn4C)C[C@H]21 = 6.4
O=C(c1ccc(F)cc1)C1CCN(CCn2c(=O)[nH]c3ccccc3c2=O)CC1 = 1330

Please examine the following record next.
Exercise: What Ki appears in the records for this compound with human 5-HT4B receptor (clone hp78a) (Homo sapiens, UniProt P34969)? O=C(CCCN1CCC2(CC1)C(=O)NCN2c1ccccc1)c1ccc(F)cc1
Key: 110
